test: Primary phase half life in ICR mouse at 20 mg/kg, iv; format: ADME, organism-based; parameters: dose 20 mg/kg, route intravenous; details: in vivo, read-out: alphat1/2

Smiles str	half-life, s
FC(F)(F)c1ccc(Oc2ccc(-c3noc(-c4ccc5[nH]ccc5c4)n3)cc2)cc1	32.4

====

test: Terminal half life in ICR mouse at 20 mg/kg, iv; type: ADME, organism-based; set-up: dose 20 mg/kg, route intravenous; settings: in vivo, read-out: beta t1/2 (converted)
Test readout: half-life (h)

Smiles str	Measurement
FC(F)(F)c1ccc(Oc2ccc(-c3noc(-c4ccc5[nH]ccc5c4)n3)cc2)cc1	9.6

====

test system: Staphylococcus aureus; assay: Antibacterial activity against methicillin-sensitive Staphylococcus aureus ATCC 29213 after 16 to 20 hrs by broth microdilution method; assay type: functional

Compound	MIC
NS(=O)(=O)c1ccc(-c2nc(-c3ccc(Oc4ccc(C(F)(F)F)cc4)cc3)no2)cc1	≥ 128 µg/mL
Oc1ccc(-c2nc(-c3ccc(Oc4ccccc4)cc3)no2)cc1	1 µg/mL
C[Si](C)(C)C#Cc1c[nH]nc1-c1nc(-c2ccc(Oc3ccc(C(F)(F)F)cc3)cc2)no1	≥ 128 µg/mL
O=[N+]([O-])c1cc(-c2nc(-c3ccc(Oc4ccc(F)cc4)cc3)no2)ccc1O	≥ 128 µg/mL
COc1ccc(-c2nc(-c3ccc(Oc4ccc(C(F)(F)F)cc4)cc3)no2)cc1[N+](=O)[O-]	≥ 128 µg/mL
O=C1C[C@@H](c2nc(-c3ccc(Oc4ccc(C(F)(F)F)cc4)cc3)no2)CN1	≥ 128 µg/mL
Oc1cc(-c2nc(-c3ccc(Oc4ccccc4)cc3)no2)ccc1I	≥ 128 µg/mL
c1ccc(Oc2ccc(-c3noc(-c4ccc5[nH]ncc5c4)n3)cc2)cc1	≥ 128 µg/mL
Oc1ccc(-c2nc(-c3ccc(Oc4ccc(C(F)(F)F)cc4)cc3)no2)cn1	≥ 128 µg/mL
NS(=O)(=O)c1ccc(-c2nc(-c3ccc(Oc4ccc(F)cc4)cc3)no2)cc1	≥ 128 µg/mL
CC(C)Nc1c[nH]nc1-c1nc(-c2ccc(Oc3ccc(C(F)(F)F)cc3)cc2)no1	0.5 µg/mL
NCCCCc1nc(-c2ccc(Oc3ccccc3)cc2)no1	≥ 128 µg/mL
Fc1ccc(Oc2ccc(-c3noc(-c4cc[nH]n4)n3)cc2)cc1	≥ 128 µg/mL
FC(F)(F)c1ccc(Oc2ccc(-c3noc(-c4nc[nH]n4)n3)cc2)cc1	≥ 128 µg/mL
FC(F)(F)c1ccc(Oc2ccc(-c3noc(-c4cc[nH]n4)n3)cc2)cc1	≥ 128 µg/mL
Cl.c1ccc(Oc2ccc(-c3noc(C4CCNCC4)n3)cc2)cc1	32 µg/mL
COc1ccc(-c2nc(-c3ccc(Oc4ccc(F)cc4)cc3)no2)cc1OC	≥ 128 µg/mL
Nc1c(F)cc(-c2nc(-c3ccc(Oc4ccccc4)cc3)no2)cc1F	8 µg/mL
Fc1ccc(Oc2ccc(-c3noc(-c4n[nH]cc4I)n3)cc2)cc1	4 µg/mL
NC(=O)c1ccc(-c2nc(-c3ccc(Oc4ccc(F)cc4)cc3)no2)cc1	≥ 128 µg/mL
COC(=O)c1ccc(-c2nc(-c3ccc(Oc4ccc(F)cc4)cc3)no2)cc1	≥ 128 µg/mL
Cl.NC(Cc1ccccc1)c1nc(-c2ccc(Oc3ccccc3)cc2)no1 (stereo unspecified)	≥ 128 µg/mL
Fc1ccc(Oc2ccc(-c3noc(-c4c[nH]cn4)n3)cc2)cc1	≥ 128 µg/mL
O=C(Nc1c[nH]nc1-c1nc(-c2ccc(Oc3ccc(C(F)(F)F)cc3)cc2)no1)c1ccccc1	≥ 128 µg/mL
O=[N+]([O-])c1c[nH]c(-c2nc(-c3ccc(Oc4ccc(F)cc4)cc3)no2)c1	≥ 128 µg/mL
O=c1[nH]c(-c2ccc(Oc3ccccc3)cc2)no1	≥ 128 µg/mL
Oc1ccc(-c2nc(-c3ccc(Oc4ccc(F)cc4)cc3)no2)cc1	1 µg/mL
Nc1c[nH]c(-c2nc(-c3ccc(Oc4ccc(F)cc4)cc3)no2)c1	≥ 128 µg/mL
N#Cc1c[nH]nc1-c1nc(-c2ccc(Oc3ccc(C(F)(F)F)cc3)cc2)no1	2 µg/mL
Fc1ccc(-c2nc(-c3ccc(Oc4ccc(C(F)(F)F)cc4)cc3)no2)cc1	≥ 128 µg/mL
FC(F)(F)c1ccc(Oc2ccc(-c3noc(-c4n[nH]cc4Br)n3)cc2)cc1	1 µg/mL
Nc1ccc(-c2nc(-c3ccc(Oc4ccccc4)cc3)no2)c(O)c1	≥ 128 µg/mL
FC(F)(F)c1ccc(Oc2ccc(-c3noc(-c4cn[nH]n4)n3)cc2)cc1	16 µg/mL
Cc1nc(-c2ccc(Oc3ccccc3)cc2)no1	≥ 128 µg/mL
Fc1ccc(Oc2ccc(-c3noc(-c4ccc5[nH]ccc5c4)n3)cc2)cc1	1 µg/mL
O=[N+]([O-])c1c[nH]nc1-c1nc(-c2ccc(Oc3ccc(C(F)(F)F)cc3)cc2)no1	2 µg/mL
Oc1ccc(-c2nc(-c3ccc(Oc4ccc(F)cc4)cc3)no2)cc1F	2 µg/mL
C#Cc1c[nH]nc1-c1nc(-c2ccc(Oc3ccc(C(F)(F)F)cc3)cc2)no1	0.25 µg/mL
Nc1ccc(-c2nc(-c3ccc(Oc4ccc(C(F)(F)F)cc4)cc3)no2)cc1	1 µg/mL
FC(F)(F)c1ccc(Oc2ccc(-c3noc(-c4n[nH]cc4NC4CCCCC4)n3)cc2)cc1	≥ 128 µg/mL
Fc1ccc(Oc2ccc(-c3noc(-c4cc[nH]c4)n3)cc2)cc1	≥ 128 µg/mL

Data origin: ChEMBL document CHEMBL3407479
